Test system: phenol oxidizing enzyme from Acremonium murorum
Settings: ΔE oily tomato stain/ΔE P10, detergent formulation
measure name: Ratio Bleach on Stain Monitor/Dye Damage, Oily Tomato Stain
When you answer, write just the number.

Given item O=S(=O)(Nc1cc(Br)c(O)c(Br)c1Br)c1ccccc1 [Enhancer 3BrphenolBSA] , the value recorded as its Ratio Bleach on Stain Monitor/Dye Damage, Oily Tomato Stain is 6.18

Given item O=C(O)CCN1c2ccccc2Sc2ccccc21 [PTP, Phenothiazine-10-propionate] , the value recorded as its Ratio Bleach on Stain Monitor/Dye Damage, Oily Tomato Stain is 2.89

Given item Cc1ccc(S(=O)(=O)Nc2cc(Br)c(O)c(Br)c2Br)cc1 [3Brphenol3MeBSA] , the value recorded as its Ratio Bleach on Stain Monitor/Dye Damage, Oily Tomato Stain is 6.29

Given item CCn1c(=NN=c2sc3cc(S(=O)(=O)O)ccc3n2CC)sc2cc(S(=O)(=O)O)ccc21 [ABTS] , the value recorded as its Ratio Bleach on Stain Monitor/Dye Damage, Oily Tomato Stain is 4.22

====

Test system: phenol oxidizing enzyme from Acremonium murorum
Settings: enhancer 250 μM, no enzyme, detergent formulation 2 g/l, pH 9, 30 min, 30° C.
Kindly state Stain bleach performance ΔE, Tomato Extract, Without enzyme for each of the entries shown.
When you answer, write just the number.

Given item O=C(O)CCN1c2ccccc2Sc2ccccc21 [PTP, Phenothiazine-10-propionate] , the value recorded as its Stain bleach performance ΔE, Tomato Extract, Without enzyme is 12.00

Given item Cc1ccc(S(=O)(=O)Nc2cc(Br)c(O)c(Br)c2Br)cc1 , the value recorded as its Stain bleach performance ΔE, Tomato Extract, Without enzyme is 12.86

Given item O=S(=O)(Nc1cc(Br)c(O)c(Br)c1Br)c1ccccc1 , the value recorded as its Stain bleach performance ΔE, Tomato Extract, Without enzyme is 12.99

Given item CCn1c(=NN=c2sc3cc(S(=O)(=O)O)ccc3n2CC)sc2cc(S(=O)(=O)O)ccc21 , the value recorded as its Stain bleach performance ΔE, Tomato Extract, Without enzyme is 11.12

====

Kindly state Stain bleach performance ΔE, Oily Tomato Stain, With enzyme for each of the entries shown.
Tested on: phenol oxidizing enzyme from Acremonium murorum
Assay: Bleaching of oily tomato stains on cotton swatches by phenol oxidizing enzyme/enhancer system
Conditions: enhancer 250 μM, enzyme 20 mg/l, detergent formulation 2 g/l, pH 9, 30 min, 30° C.
When you answer, write just the number.

Given item CCn1c(=NN=c2sc3cc(S(=O)(=O)O)ccc3n2CC)sc2cc(S(=O)(=O)O)ccc21 , the value recorded as its Stain bleach performance ΔE, Oily Tomato Stain, With enzyme is 27.53

Given item Cc1ccc(S(=O)(=O)Nc2cc(Br)c(O)c(Br)c2Br)cc1 , the value recorded as its Stain bleach performance ΔE, Oily Tomato Stain, With enzyme is 11.71

Given item O=S(=O)(Nc1cc(Br)c(O)c(Br)c1Br)c1ccccc1 , the value recorded as its Stain bleach performance ΔE, Oily Tomato Stain, With enzyme is 10.95

Given item O=C(O)CCN1c2ccccc2Sc2ccccc21 [PTP, Phenothiazine-10-propionate] , the value recorded as its Stain bleach performance ΔE, Oily Tomato Stain, With enzyme is 9.41

====

Kindly state Color difference (ΔE) dyed swatch P10 after 3 washes for each of the entries shown.
System: phenol oxidizing enzyme from Acremonium murorum
Experiment: Dye damage of the phenol oxidizing enzyme/enhancer system on dyed swatches, 3 washes in Tris buffer
Details: Dyed Monitor P10, 3 washes, Tris buffer pH 8, enzyme 20 mg/l, enhancer 250 μM

Given item O=C(O)CCN1c2ccccc2Sc2ccccc21 [PTP, Phenothiazine-10-propionate] , the value recorded as its Color difference (ΔE) dyed swatch P10 after 3 washes is 9.66

Given item CCn1c(=NN=c2sc3cc(S(=O)(=O)O)ccc3n2CC)sc2cc(S(=O)(=O)O)ccc21 [ABTS] , the value recorded as its Color difference (ΔE) dyed swatch P10 after 3 washes is 12.18

Given item Cc1ccc(S(=O)(=O)Nc2cc(Br)c(O)c(Br)c2Br)cc1 [3Brphenol3MeBSA] , the value recorded as its Color difference (ΔE) dyed swatch P10 after 3 washes is 0.96

Given item O=S(=O)(Nc1cc(Br)c(O)c(Br)c1Br)c1ccccc1 [Enhancer 3BrphenolBSA] , the value recorded as its Color difference (ΔE) dyed swatch P10 after 3 washes is 1.00

====

Test system: phenol oxidizing enzyme from Acremonium murorum
Assay: Dye damage of the phenol oxidizing enzyme/enhancer system on dyed swatches, 3 washes in Tris buffer
Conditions: Dyed Monitor PO8, 3 washes, Tris buffer pH 8, enzyme 20 mg/l, enhancer 250 μM
Kindly state Color difference (ΔE) dyed swatch PO8 after 3 washes for each of the entries shown.
When you answer, write just the number.

Given item CCn1c(=NN=c2sc3cc(S(=O)(=O)O)ccc3n2CC)sc2cc(S(=O)(=O)O)ccc21 , the value recorded as its Color difference (ΔE) dyed swatch PO8 after 3 washes is 24.02

Given item O=S(=O)(Nc1cc(Br)c(O)c(Br)c1Br)c1ccccc1 , the value recorded as its Color difference (ΔE) dyed swatch PO8 after 3 washes is 1.45

Given item Cc1ccc(S(=O)(=O)Nc2cc(Br)c(O)c(Br)c2Br)cc1 , the value recorded as its Color difference (ΔE) dyed swatch PO8 after 3 washes is 1.52

Given item O=C(O)CCN1c2ccccc2Sc2ccccc21 [PTP, Phenothiazine-10-propionate] , the value recorded as its Color difference (ΔE) dyed swatch PO8 after 3 washes is 12.57

====

Kindly state Color difference (ΔE) original P10 swatch vs after 4th wash for each of the entries shown.
Tested on: phenol oxidizing enzyme from Acremonium murorum
Assay: Dye damage of the phenol oxidizing enzyme/enhancer system on colored swatch P10, consecutive washes in detergent formulation
Settings: 4th wash, enzyme 20 mg/l, enhancer 250 μM, 40° C., 1 hour
When you answer, write just the number.

Given item CCn1c(=NN=c2sc3cc(S(=O)(=O)O)ccc3n2CC)sc2cc(S(=O)(=O)O)ccc21 , the value recorded as its Color difference (ΔE) original P10 swatch vs after 4th wash is 4.99

Given item O=C(O)CCN1c2ccccc2Sc2ccccc21 [PTP, Phenothiazine-10-propionate] , the value recorded as its Color difference (ΔE) original P10 swatch vs after 4th wash is 2.63

Given item O=S(=O)(Nc1cc(Br)c(O)c(Br)c1Br)c1ccccc1 , the value recorded as its Color difference (ΔE) original P10 swatch vs after 4th wash is 1.55

Given item Cc1ccc(S(=O)(=O)Nc2cc(Br)c(O)c(Br)c2Br)cc1 , the value recorded as its Color difference (ΔE) original P10 swatch vs after 4th wash is 1.62

====

Tested on: phenol oxidizing enzyme from Acremonium murorum
Assay: Dye damage of the phenol oxidizing enzyme/enhancer system on dyed swatches, 3 washes in Tris buffer
Details: Dyed Monitor OO6, 3 washes, Tris buffer pH 8, enzyme 20 mg/l, enhancer 250 μM
Experimental: A number of colored swatches were washed to assess the degree to which the enzymatic bleach system provokes dye damage. […] The closed containers were agitated by putting them in a washing machine. The machine was run for 1 hour with the water heated to 40° C. […] The phenol oxidizing enzyme from Acremonium murorum (see above) was added to the wash solution at 20 mg/l. The enhancers were all dosed at 250 μM.
measure name: Color difference (ΔE) dyed swatch OO6 after 3 washes

Given item O=S(=O)(Nc1cc(Br)c(O)c(Br)c1Br)c1ccccc1 [Enhancer 3BrphenolBSA] , the value recorded as its Color difference (ΔE) dyed swatch OO6 after 3 washes is 4.45

Given item CCn1c(=NN=c2sc3cc(S(=O)(=O)O)ccc3n2CC)sc2cc(S(=O)(=O)O)ccc21 [ABTS] , the value recorded as its Color difference (ΔE) dyed swatch OO6 after 3 washes is 19.70

Given item Cc1ccc(S(=O)(=O)Nc2cc(Br)c(O)c(Br)c2Br)cc1 [3Brphenol3MeBSA] , the value recorded as its Color difference (ΔE) dyed swatch OO6 after 3 washes is 4.59

Given item O=C(O)CCN1c2ccccc2Sc2ccccc21 [PTP, Phenothiazine-10-propionate] , the value recorded as its Color difference (ΔE) dyed swatch OO6 after 3 washes is 15.64

====

Kindly state Stain bleach performance ΔE, Oily Tomato Stain, Without enzyme for each of the entries shown.
Tested on: phenol oxidizing enzyme from Acremonium murorum
Assay: Bleaching of oily tomato stains on cotton swatches by phenol oxidizing enzyme/enhancer system
Conditions: enhancer 250 μM, no enzyme, detergent formulation 2 g/l, pH 9, 30 min, 30° C.
When you answer, write just the number.

// molecule O=S(=O)(Nc1cc(Br)c(O)c(Br)c1Br)c1ccccc1 , assay phenol oxidizing enzyme from Acremonium murorum, Stain bleach performance ΔE, Oily Tomato Stain, Without enzyme value: 6.89

// molecule CCn1c(=NN=c2sc3cc(S(=O)(=O)O)ccc3n2CC)sc2cc(S(=O)(=O)O)ccc21 , assay phenol oxidizing enzyme from Acremonium murorum, Stain bleach performance ΔE, Oily Tomato Stain, Without enzyme value: 8.67

// molecule Cc1ccc(S(=O)(=O)Nc2cc(Br)c(O)c(Br)c2Br)cc1 , assay phenol oxidizing enzyme from Acremonium murorum, Stain bleach performance ΔE, Oily Tomato Stain, Without enzyme value: 6.87

// molecule O=C(O)CCN1c2ccccc2Sc2ccccc21 [PTP, Phenothiazine-10-propionate] , assay phenol oxidizing enzyme from Acremonium murorum, Stain bleach performance ΔE, Oily Tomato Stain, Without enzyme value: 8.54
